tested on: HeLa cells; test: Cell cycle assay in HeLa cells; format: cell-based, human; conditions: HeLa cells, 25 nM, 48 hours; percentage of cells in phase, average of replicates
In the oligonucleotide strings, read from the 5' end, every base follows the letter of its sugar. An asterisk marks phosphorothioate; unmarked linkages are phosphodiester. Other units and linkages are bracketed, terminal groups are in braces. A string of capitals states the bases alone. e = 2'-O-(2-methoxyethyl) (MOE); [5mC] = 5-methylcytosine; d = 2'-deoxy (DNA)
Result type: % cells in cell cycle phase: subG1 (%)
Write it as a number; the unit % goes unstated.

Recorded % cells in cell cycle phase: subG1, per entry:
> print(dat)
                                  substance  measurement.target                         result.type  measured.value
1  327905 (antisense e[5mC]*eA*eG*eA*e[5mC]*eT*e[5mC]*e[5mC]*eG*eG*eT*eG*eG*eA*eA*eT*eG*eA*eA*eG*eG*eA) [compound 327905]          HeLa cells  % cells in cell cycle phase: subG1             1.7
2  328403 (antisense eA*eG*eG*e[5mC]*e[5mC]*dT*dA*dT*dT*d[5mC]*d[5mC]*dT*dG*dT*dA*eG*e[5mC]*eA*eA*eA) [compound 328403]          HeLa cells  % cells in cell cycle phase: subG1             1.5
3  327902 (antisense eG*eG*e[5mC]*eT*eG*eT*e[5mC]*eA*eA*eT*eT*e[5mC]*eA*eT*eA*eG*eG*eT*e[5mC]*eA*eG) [compound 327902]          HeLa cells  % cells in cell cycle phase: subG1             1.6

Turning now to a further record.
**Query** Look up % cells in cell cycle phase: subG1: 328383 (eA*eG*eA*eG*eG*dG*dG*dA*dG*dA*d[5mC]*dG*dA*dG*dA*eG*e[5mC]*eA*e[5mC]*eT) [compound 328383]
**Result** 1.9

###

system: T47D cells; assay: Caspase-3 activity assay (apoptosis) in T47D cells; details: T47D cells, 200 nM oligomeric compound, 48 hours; experiment of Table 11
In the oligonucleotide strings, read from the 5' end, every base follows the letter of its sugar. An asterisk marks phosphorothioate; unmarked linkages are phosphodiester. Other units and linkages are bracketed, terminal groups are in braces. A string of capitals states the bases alone. e = 2'-O-(2-methoxyethyl) (MOE); [5mC] = 5-methylcytosine; d = 2'-deoxy (DNA)
Result type: Fold Increase over UTC (caspase-3 activity, apoptosis) (fold)
Write it as a number; the unit fold goes unstated.

**Query** Look up Fold Increase over UTC (caspase-3 activity, apoptosis): 328384 (eT*e[5mC]*eA*e[5mC]*eG*dT*dG*dG*dA*dG*dA*dG*dG*dA*dG*eT*eT*eA*eA*eA; antisense) [compound 328384]
**Result** 1.0

**Query** Look up Fold Increase over UTC (caspase-3 activity, apoptosis): 328407 (antisense eA*eA*eT*eG*eG*dA*dG*d[5mC]*d[5mC]*dA*dA*dG*dG*dT*dG*e[5mC]*eT*eG*e[5mC]*e[5mC]) [compound 328407]
**Result** 1.2

**Query** Look up Fold Increase over UTC (caspase-3 activity, apoptosis): 328393 (eG*e[5mC]*eT*eG*eG*d[5mC]*d[5mC]*dT*dG*dA*dT*dA*dG*d[5mC]*d[5mC]*e[5mC]*eT*eT*e[5mC]*eT; antisense) [compound 328393]
**Result** 1.5

###

system: PEPCK-c; experiment: PEPCK-c mRNA expression in HepG2 cells; format: cell-based, human; conditions: Experiment 2, insulin treated: HepG2 cells transfected with oligomeric compound, 1 nM insulin for four hours; UTC + 1 nM insulin = 100
In the oligonucleotide strings, read from the 5' end, every base follows the letter of its sugar. An asterisk marks phosphorothioate; unmarked linkages are phosphodiester. Other units and linkages are bracketed, terminal groups are in braces. A string of capitals states the bases alone. e = 2'-O-(2-methoxyethyl) (MOE); [5mC] = 5-methylcytosine; d = 2'-deoxy (DNA)
Result type: PEPCKc mRNA expression
Respond numerically, and do not add a unit to the figure.

**Query** Look up PEPCKc mRNA expression: 328115 (antisense eA*eG*eA*eA*eG*eG*eT*eG*eG*eG*eG*eA*eG*e[5mC]*eA*eG*e[5mC]*eG*eT*e[5mC]*eA) [compound 328115]
**Result** 59

**Query** Look up PEPCKc mRNA expression: 327957 (antisense e[5mC]*eA*e[5mC]*eA*eA*eG*eT*eT*e[5mC]*eG*eG*eA*eT*e[5mC]*eT*eA*e[5mC]*eG*eG*eG*eT*eT) [compound 327957]
**Result** 88

**Query** Look up PEPCKc mRNA expression: 328377 (eT*e[5mC]*eA*e[5mC]*eT*d[5mC]*d[5mC]*dT*dA*dA*dA*dG*dG*dT*dT*e[5mC]*eA*eA*eG*eT; antisense) [compound 328377]
**Result** 182

###

The substances listed here are annotated with their TG (triglyceride accumulation).
tested on: adipocytes; assay: Triglyceride accumulation assay in adipocytes; type: cell-based, human; conditions: differentiating adipocytes transfected with oligomeric compound
In the oligonucleotide strings, read from the 5' end, every base follows the letter of its sugar. An asterisk marks phosphorothioate; unmarked linkages are phosphodiester. Other units and linkages are bracketed, terminal groups are in braces. A string of capitals states the bases alone. e = 2'-O-(2-methoxyethyl) (MOE); [5mC] = 5-methylcytosine; d = 2'-deoxy (DNA)

Substance	TG (triglyceride accumulation)
327960 (antisense eG*eT*e[5mC]*eT*eG*eT*e[5mC]*eA*eA*eT*eT*e[5mC]*eA*eT*eA*eG*eG*eT*e[5mC]*eA*eT) [compound 327960]	47 percentage of untreated control (UTC)

Turning now to a further record.
**Query** Look up TG (triglyceride accumulation): 328677 (eT*e[5mC]*e[5mC]*eT*eG*dG*dA*dT*dG*dA*dT*dA*dT*d[5mC]*dT*eA*e[5mC]*e[5mC]*eT*e[5mC]; antisense) [compound 328677]
**Result** 34 percentage of untreated control (UTC)

###

test system: HeLa cells; experiment: Cell cycle assay in HeLa cells; assay type: cell-based, human; conditions: HeLa cells, 150 nM, 48 hours, relative to untreated control
In the oligonucleotide strings, read from the 5' end, every base follows the letter of its sugar. An asterisk marks phosphorothioate; unmarked linkages are phosphodiester. Other units and linkages are bracketed, terminal groups are in braces. A string of capitals states the bases alone. e = 2'-O-(2-methoxyethyl) (MOE); [5mC] = 5-methylcytosine; d = 2'-deoxy (DNA)
Result type: % cells in cell cycle phase aneuploid
Field note: include the unit after the figure.

Substance	% cells in cell cycle phase aneuploid
328707 (eG*e[5mC]*eA*eA*e[5mC]*dA*dG*dG*d[5mC]*d[5mC]*dT*d[5mC]*dA*dA*dT*eA*eT*e[5mC]*eT*eT) [compound 328707]	140%
345395 (AAGGGATTCCTGGGAAAACTGGAC; sugars from the 5' end e5 d10 e9, all phosphorothioate, methylation of C not given here) [compound 345395]	139%

Turning now to a further record.
**Query** Provide value of % cells in cell cycle phase aneuploid for this record tested with HeLa cells: 25690 (antisense eA*eT*e[5mC]*e[5mC]*e[5mC]*dT*dT*dT*d[5mC]*dT*dT*d[5mC]*d[5mC]*dG*d[5mC]*eA*eT*eG*eT*eG) [compound 25690]
**Result** 140%

###

tested on: HeLa cells; assay: Cell cycle assay in HeLa cells; assay type: cell-based, human; details: HeLa cells, 150 nM oligomeric compound, 48 hours after treatment; relative to untreated control (UTC=100)
In the oligonucleotide strings, read from the 5' end, every base follows the letter of its sugar. An asterisk marks phosphorothioate; unmarked linkages are phosphodiester. Other units and linkages are bracketed, terminal groups are in braces. A string of capitals states the bases alone. e = 2'-O-(2-methoxyethyl) (MOE); [5mC] = 5-methylcytosine; d = 2'-deoxy (DNA)
Result type: % cells in cell cycle phase: G1 (%)
Write it as a number; the unit % goes unstated.

Recorded % cells in cell cycle phase: G1, per entry:
Substance	Result type	Measured value
327877 (antisense e[5mC]*eG*e[5mC]*e[5mC]*eA*eA*eT*eA*eT*eT*eT*eA*e[5mC]*eG*eT*eG*e[5mC]*eT*eG*e[5mC]*eT*eA) [compound 327877]	% cells in cell cycle phase: G1	59
328115 (antisense eA*eG*eA*eA*eG*eG*eT*eG*eG*eG*eG*eA*eG*e[5mC]*eA*eG*e[5mC]*eG*eT*e[5mC]*eA) [compound 328115]	% cells in cell cycle phase: G1	92
340925 (antisense GTGGTAATCCCTGGCAATGTGAT; sugars from the 5' end e5 d10 e8, all phosphorothioate, methylation of C not given here) [compound 340925]	% cells in cell cycle phase: G1	87
327911 (antisense eG*e[5mC]*eT*eA*e[5mC]*e[5mC]*eT*eG*e[5mC]*eA*e[5mC]*eT*eG*eT*eA*eA*eG*e[5mC]*eA*e[5mC]*eT*eT*eT*eT) [compound 327911]	% cells in cell cycle phase: G1	99

Turning now to a further record.
**Query** Look up % cells in cell cycle phase: G1: 338690 (antisense TAGACAAAAACAGACTCTGA; all 2'-MOE, all phosphorothioate, methylation of C not given here) [compound 338690]
**Result** 91

Hey, just so you know, these numbers are from patent US8178506B2.
